Test system: MDR1 (P-glycoprotein), human
ASSAY METHOD TEXT: Bidirectional membrane permeability in MDR1-MDCK cells
Format: in vitro ADME, canine
STUDY CONDITIONS: dog, triplicate, read-out: basal to apical permeability
REPORTED METRIC: Papp B→A (×10⁻⁶ cm/s)
Form entry: value (×10⁻⁶ cm/s) — number only.

{"COMPOUND STRUCTURE": "CC(=O)Nc1cccc(C(=O)N2CCC3(CCNCC3)CC2)c1", "SYSTEM": "MDR1 (P-glycoprotein), human", "Papp B→A / ×10⁻⁶ cm/s": 0.67}

Please look at the following compound next.
Return reported Papp B→A; argument: O=C(Nc1cccc(C(=O)N2CCC3(CCNCC3)CC2)c1)c1cccs1
0.79

----------
SYSTEM: human α6β2δ GABAΑ receptor (Homo sapiens, UniProt P47870+Q16445)
Construct: expressed in transfected cells; host or cells: δ-HEK (HEK293 Flp-In stably expressing human δ), transiently transfected with α and β 1:1
Sequence (Q16445 20-453, one chain of several): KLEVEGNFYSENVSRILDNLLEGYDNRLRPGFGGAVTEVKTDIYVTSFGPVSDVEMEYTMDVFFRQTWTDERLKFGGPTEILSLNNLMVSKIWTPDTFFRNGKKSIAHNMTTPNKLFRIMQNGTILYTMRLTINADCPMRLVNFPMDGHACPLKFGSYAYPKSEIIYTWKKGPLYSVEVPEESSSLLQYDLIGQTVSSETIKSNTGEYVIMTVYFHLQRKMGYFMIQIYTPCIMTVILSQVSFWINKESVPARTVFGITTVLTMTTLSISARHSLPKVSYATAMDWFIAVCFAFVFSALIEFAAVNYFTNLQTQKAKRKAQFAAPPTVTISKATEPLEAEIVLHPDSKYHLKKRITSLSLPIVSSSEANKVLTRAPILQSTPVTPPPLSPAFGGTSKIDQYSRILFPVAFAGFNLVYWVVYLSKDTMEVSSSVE
ASSAY METHOD TEXT: FMP assay at α6β2δ GABAA receptors in HEK cells
Type: cell-based
STUDY CONDITIONS: read-out: IC50
REPORTED METRIC: pIC50
Kindly note that pIC50 refers to -log10 of the concentration in mol/L and answer with the value alone.

I have this compound here, CC(=O)Nc1cccc(C(=O)N2CCC3(CCNCC3)CC2)c1 [compound 2027] , and I need its recorded pIC50.
5.38

----------
recovery reference
Tested on: MDR1 (P-glycoprotein)
ASSAY METHOD TEXT: Bidirectional membrane permeability in MDR1-MDCK cells
Type: in vitro ADME, canine
STUDY CONDITIONS: dog, both before and after

{"COMPOUND STRUCTURE": "O=C(Nc1cccc(C(=O)N2CCC3(CCNCC3)CC2)c1)c1cccs1", "SYSTEM": "MDR1 (P-glycoprotein)", "recovery": "> 85%"}

Proceed to the following item.
Which recovery is reported with MDR1 (P-glycoprotein) for this entry: CC(=O)Nc1cccc(C(=O)N2CCC3(CCNCC3)CC2)c1 ?
> 85%

----------
Tested on: α1,2,6 GABAΑ receptors
ASSAY METHOD TEXT: FMP assay, α1,2,6 receptors (summary)
Type: cell-based, human
STUDY CONDITIONS: range over subtypes; read-out: potency (IC50) at α1,2,6 receptors
REPORTED METRIC: IC50

IC50 for O=C(Nc1cccc(C(=O)N2CCC3(CCNCC3)CC2)c1)c1cccs1 [compound 018] ?
240 to 790 nM

----------
Here the recorded pIC50 is given for each entry.
SYSTEM: human α1β2δ GABAΑ receptor (Homo sapiens, UniProt P14867+P47870)
Construct: expressed in transfected cells; host or cells: δ-HEK (HEK293 Flp-In stably expressing human δ), transiently transfected with α and β 1:1
Sequence (P14867 28-456): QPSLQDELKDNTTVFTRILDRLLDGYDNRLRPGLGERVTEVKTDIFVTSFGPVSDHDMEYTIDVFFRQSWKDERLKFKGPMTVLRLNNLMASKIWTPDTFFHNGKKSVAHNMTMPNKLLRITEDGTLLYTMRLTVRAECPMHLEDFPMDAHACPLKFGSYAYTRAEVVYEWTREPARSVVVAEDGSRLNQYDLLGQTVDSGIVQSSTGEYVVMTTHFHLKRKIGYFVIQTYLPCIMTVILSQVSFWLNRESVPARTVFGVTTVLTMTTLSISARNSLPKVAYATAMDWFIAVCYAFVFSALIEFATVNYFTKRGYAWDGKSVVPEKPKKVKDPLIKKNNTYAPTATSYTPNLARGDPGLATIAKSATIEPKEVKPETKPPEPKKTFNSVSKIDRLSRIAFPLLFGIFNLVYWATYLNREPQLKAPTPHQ
Sequence (P47870 25-512 limits assumed): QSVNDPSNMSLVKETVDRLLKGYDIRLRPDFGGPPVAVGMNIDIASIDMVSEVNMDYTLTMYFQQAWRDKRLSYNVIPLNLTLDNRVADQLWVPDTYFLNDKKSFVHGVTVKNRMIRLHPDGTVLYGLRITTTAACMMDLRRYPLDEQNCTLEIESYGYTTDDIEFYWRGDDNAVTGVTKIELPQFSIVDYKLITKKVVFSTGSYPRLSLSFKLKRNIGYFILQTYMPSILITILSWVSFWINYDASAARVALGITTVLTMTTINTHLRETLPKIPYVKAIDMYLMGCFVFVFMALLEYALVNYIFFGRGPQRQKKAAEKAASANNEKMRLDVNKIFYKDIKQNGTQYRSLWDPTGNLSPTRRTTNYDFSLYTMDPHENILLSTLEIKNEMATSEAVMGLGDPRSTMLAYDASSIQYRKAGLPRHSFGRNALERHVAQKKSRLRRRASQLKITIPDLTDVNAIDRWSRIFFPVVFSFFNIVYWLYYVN
Sequence (O14764 25-452 partner): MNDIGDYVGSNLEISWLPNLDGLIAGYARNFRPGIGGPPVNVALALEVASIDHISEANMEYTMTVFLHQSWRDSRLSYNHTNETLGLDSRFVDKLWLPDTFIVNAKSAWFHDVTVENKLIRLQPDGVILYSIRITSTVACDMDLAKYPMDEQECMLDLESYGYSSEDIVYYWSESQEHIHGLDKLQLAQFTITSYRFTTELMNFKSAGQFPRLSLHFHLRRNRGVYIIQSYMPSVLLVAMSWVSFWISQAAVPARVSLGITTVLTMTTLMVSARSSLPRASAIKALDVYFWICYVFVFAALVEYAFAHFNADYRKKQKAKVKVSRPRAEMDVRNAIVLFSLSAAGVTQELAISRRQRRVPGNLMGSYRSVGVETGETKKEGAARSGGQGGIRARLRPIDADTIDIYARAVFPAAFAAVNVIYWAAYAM
ASSAY METHOD TEXT: FMP assay at α1β2δ GABAA receptors in HEK cells
Type: cell-based
STUDY CONDITIONS: antagonist activity vs GABA EC80 10–14 μM, mean, read-out: IC50
To interpret pIC50, take it as minus log10 of a concentration measured in moles per litre.

{"COMPOUND STRUCTURE": "CC(=O)Nc1cccc(C(=O)N2CCC3(CCNCC3)CC2)c1", "TEST VALUE": 5.18}

Now look at this entry.
Bench note: what pIC50 did O=C(Nc1cccc(C(=O)N2CCC3(CCNCC3)CC2)c1)c1cccs1 show?
6.62

----------
SYSTEM: [^3H]muscimol binding (GABAΑ receptors) in rat brain cortical homogenate
ASSAY METHOD TEXT: [3H]muscimol radioligand binding in rat cortical homogenate
STUDY CONDITIONS: 5 nM [^3H]muscimol, n = 4
REPORTED METRIC: Ki (nM)
# value in nM; strip the unit string

{"COMPOUND": "O=C(Nc1cccc(C(=O)N2CCC3(CCNCC3)CC2)c1)c1cccs1 [compound 018]", "Ki [nM]": 20}

Would you mind telling me what Ki value was observed for CC(=O)Nc1cccc(C(=O)N2CCC3(CCNCC3)CC2)c1 [compound 2027] ?
560

----------
SYSTEM: human α4β2δ GABAΑ receptor (Homo sapiens, UniProt P47870+P48169)
Construct: expressed in transfected cells; host or cells: δ-HEK (HEK293 Flp-In stably expressing human δ), transiently transfected with α and β 1:1
ASSAY METHOD TEXT: FMP assay at α4β2δ GABAA receptors in HEK cells
Format: cell-based
STUDY CONDITIONS: read-out: IC50
Procedure: HEK293 cells were maintained in DMEM containing GlutaMAX-I, supplemented with 10% FBS and 1% penicillin-streptomycin and incubated at 37 °C and a humidity of 5% CO2. […] The FMP assay was performed as previously described with a few modifications. […] Data was obtained as changes in fluorescence units (∆RFU) by measuring emission at 560 nm caused by excitation at 530 nm. […]
REPORTED METRIC: pIC50
Note on units: pIC50 is unitless, being -log10 of a concentration expressed in mol/L.

Requested read-out pIC50, target or system human α4β2δ GABAΑ receptor (Homo sapiens, UniProt P47870+P48169), entry O=C(Nc1cccc(C(=O)N2CCC3(CCNCC3)CC2)c1)c1cccs1
7.17

----------
SYSTEM: human α4β1δ receptors in δ-HEK cells (Homo sapiens, UniProt P18505+P48169)
Sequence (P48169 36-554, one chain of several): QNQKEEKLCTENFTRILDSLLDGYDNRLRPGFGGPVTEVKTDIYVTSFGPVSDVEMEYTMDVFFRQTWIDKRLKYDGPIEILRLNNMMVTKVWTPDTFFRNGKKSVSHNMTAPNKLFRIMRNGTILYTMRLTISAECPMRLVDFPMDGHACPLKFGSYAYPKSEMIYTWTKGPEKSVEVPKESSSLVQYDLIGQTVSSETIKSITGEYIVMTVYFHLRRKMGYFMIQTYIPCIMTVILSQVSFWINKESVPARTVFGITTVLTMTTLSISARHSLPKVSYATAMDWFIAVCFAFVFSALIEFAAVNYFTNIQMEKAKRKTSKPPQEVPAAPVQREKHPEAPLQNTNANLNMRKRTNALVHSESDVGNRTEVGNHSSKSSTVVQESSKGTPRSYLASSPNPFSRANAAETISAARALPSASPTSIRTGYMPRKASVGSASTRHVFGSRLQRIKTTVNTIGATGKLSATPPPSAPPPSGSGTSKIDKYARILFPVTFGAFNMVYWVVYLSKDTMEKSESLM
Sequence (P18505 26-474, one chain of several): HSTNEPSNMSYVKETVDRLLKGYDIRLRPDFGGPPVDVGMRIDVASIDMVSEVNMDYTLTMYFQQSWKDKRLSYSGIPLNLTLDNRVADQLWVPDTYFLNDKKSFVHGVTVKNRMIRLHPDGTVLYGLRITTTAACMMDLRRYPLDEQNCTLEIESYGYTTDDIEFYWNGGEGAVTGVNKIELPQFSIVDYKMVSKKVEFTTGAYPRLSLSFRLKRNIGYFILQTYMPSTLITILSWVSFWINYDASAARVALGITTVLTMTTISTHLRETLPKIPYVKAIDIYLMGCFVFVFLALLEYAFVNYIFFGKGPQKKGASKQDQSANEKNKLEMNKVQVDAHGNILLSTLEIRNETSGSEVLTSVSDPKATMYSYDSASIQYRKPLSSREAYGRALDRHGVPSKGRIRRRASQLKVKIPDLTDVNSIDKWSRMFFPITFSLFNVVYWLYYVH
ASSAY METHOD TEXT: Whole-cell patch-clamp electrophysiology, concentration-response
Excerpt: To express recombinant GABAΑ receptors human α1, α2, α3, α5, α6, β2, γ2 (pcDNA3.1/Zeo) and α4, β1 (pUNIV)[26] subunit cDNA were transiently transfected into either δ-HEK or HEK background cells. δ-HEK cells were transfected with α- and β-subunits in a 1:1 ration whereas HEK background cells were transfected with α-, β- and γ-subunits in a 1:1:2 ratio. […]
REPORTED METRIC: pIC50
A value of pIC50 is the negative decimal logarithm of a concentration given in moles per litre.

# returns recorded pIC50 (system: human α4β1δ receptors in δ-HEK cells (Homo sapiens, UniProt P18505+P48169)) for O=C(Nc1cccc(C(=O)N2CCC3(CCNCC3)CC2)c1)c1cccs1 [compound 018]
7.97
